# method summary: Pharmacokinetic study in cynomolgus monkeys after oral (nasogastric) gavage, sublingual and intravenous administration
# Format: in vivo
# test context: cynomolgus monkey, plasma, intravenous, 2 mg/kg, Plasma Bumetanide Dibenzylamide concentration, Mean, monkey, dose column 2 mg/kg (title 30 mg/kg), Third Formulation (Form 4), 32.00 h, N=4
quantity name: concentration at 32 h (ng/mL)
I only need the number, in ng/mL, no unit after it.

CCCCNc1cc(C(=O)N(Cc2ccccc2)Cc2ccccc2)cc(S(N)(=O)=O)c1Oc1ccccc1 [Bumetanide Dibenzylamide] yielded concentration at 32 h of 1.48

* * *

# method summary: in vitro
# test context: human, Caco-2, pH 7.4, % Solution Recovery
quantity name: recovery at 2 h, 2 μM

CCCCNc1cc(C(=O)N(Cc2ccccc2)Cc2ccccc2)cc(S(N)(=O)=O)c1Oc1ccccc1 [Bumetanide Dibenzylamide] yielded recovery at 2 h, 2 μM of < 50%

Source of measurements: patent US20250120932A1
